assay.target: T1, Recombinant human TfR1-Fc protein (TFR-H5264, Acro Biosystems) (human, UniProt P02786 101-760)
T1 construct: Transferrin receptor 1 (TfR1/CD71), human; As recalled, the supplier's TfR1 constructs hold the extracellular part (about Cys89-Phe760); source: bought: Acro Biosystems
T1 sequence (P02786 101-760): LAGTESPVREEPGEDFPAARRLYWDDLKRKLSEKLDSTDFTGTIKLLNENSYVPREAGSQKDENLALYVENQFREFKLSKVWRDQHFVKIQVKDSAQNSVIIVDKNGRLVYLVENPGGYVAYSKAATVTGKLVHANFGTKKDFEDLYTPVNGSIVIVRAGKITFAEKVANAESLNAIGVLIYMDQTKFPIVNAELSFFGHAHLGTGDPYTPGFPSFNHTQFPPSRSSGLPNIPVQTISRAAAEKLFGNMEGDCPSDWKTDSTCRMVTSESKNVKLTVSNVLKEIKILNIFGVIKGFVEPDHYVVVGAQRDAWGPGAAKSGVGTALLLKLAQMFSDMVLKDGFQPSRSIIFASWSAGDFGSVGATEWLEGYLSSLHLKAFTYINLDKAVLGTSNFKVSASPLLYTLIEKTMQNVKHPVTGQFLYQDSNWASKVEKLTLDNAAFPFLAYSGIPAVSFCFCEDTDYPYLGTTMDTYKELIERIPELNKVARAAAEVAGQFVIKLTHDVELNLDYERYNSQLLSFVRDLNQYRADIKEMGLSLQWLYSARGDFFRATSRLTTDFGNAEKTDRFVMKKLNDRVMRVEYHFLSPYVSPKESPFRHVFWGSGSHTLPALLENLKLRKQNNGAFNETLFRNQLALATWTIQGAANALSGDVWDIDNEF
assay.notes: SPR; Biacore 8K; recombinant human TfR1-Fc immobilized on the sensor chip; TR01 at 62.5–1,000 nM; as printed: 'acidic conditions (pH 2.0) using a running buffer containing TfR1 at 30 μg/mL'; global fit of association and dissociation curves
protocol.conditions: both partners purified
measure.name: Kd (nM)
Express your answer in nM, writing the number without its unit.

# input Query (binder): AVFVWNYYIIRRYYCK (cyclo(Ac-Ala1 ... Cys15) as printed; N-terminal Ac; NMe-Tyr at position 14; PEG12 between Cys15 and the C-terminal Lys; NOTA on the Lys, the 15-residue macrocycle, printed in three-letter code; position 14 is N-methyl-Tyr; C-terminal Lys that carries NOTA; joined to Cys15 through a PEG12 spacer (no amino acids); a thioether from an N-terminal chloroacetyl group is only surmised; also called unlabeled TR01; unlabeled NOTA-TR01; source: synthetic peptide, custom synthesized by A+ Peptide (Shanghai, China), >95% purity) [NOTA-TR01 [cyclo(Ac-Ala-Val-Phe-Val-Trp-Asn-Tyr-Tyr-Ile-Ile-Arg-Arg-Tyr-NMe-Tyr-Cys)-PEG12-Lys-NOTA]] ; field requested: Kd
# output 22.3
